- assay.summary: Rat intrinsic and hepatic clearance
- Assay type: in vitro ADME
Exam item: assign rule met to entries whose Rat CLhep is below 50 mL/min/kg and rule not met to entries at or above 50 mL/min/kg. Note that a value of exactly 50 mL/min/kg receives rule not met.

Ask: Confirm or reject: Rat CLhep of c1cnc2[nH]nc(Nc3ccc4c(O[C@H]5CCOC5)nccc4c3)c2c1 lies strictly below 50 mL/min/kg
Result: rule not met

Ask: Confirm or reject: Rat CLhep of c1cnc2c(Nc3ccc4c(OCC5CCOC5)nccc4c3)n[nH]c2c1 (centres unmarked) lies strictly below 50 mL/min/kg
Result: rule met

Ask: Confirm or reject: Rat CLhep of c1cnc2[nH]nc(Nc3ccc4c(OCC5COCCO5)nccc4c3)c2c1 (centres unmarked) lies strictly below 50 mL/min/kg
Result: rule not met

Ask: Confirm or reject: Rat CLhep of Fc1cnc2[nH]nc(Nc3ccc4c(OC5CCOCC5)nccc4c3)c2c1 lies strictly below 50 mL/min/kg
Result: rule not met

Ask: Confirm or reject: Rat CLhep of CCOCCOc1nccc2cc(Nc3n[nH]c4ncccc34)ccc12 lies strictly below 50 mL/min/kg
Result: rule not met

---

- assay.summary: Human intrinsic and hepatic clearance
- Format: in vitro ADME
observation.type: CLint scaled (mL/min/kg)
Field format: number, assumed mL/min/kg, no unit text.

Ask: Retrieve CLint scaled measured for c1cnc2c(Nc3ccc4c(O[C@H]5CCOC5)nccc4c3)n[nH]c2c1 and print it.
Result: 29.1

Ask: Retrieve CLint scaled measured for CO[C@H](C)COc1nccc2cc(Nc3n[nH]c4nccnc34)ccc12 and print it.
Result: 75.3

Ask: Retrieve CLint scaled measured for COCCOc1nccc2cc(Nc3n[nH]c4ncccc34)ccc12 and print it.
Result: 32.3

Ask: Retrieve CLint scaled measured for CCOCCOc1nccc2cc(Nc3n[nH]c4ncccc34)ccc12 and print it.
Result: 71.8

Ask: Retrieve CLint scaled measured for COCCOc1nccc2cc(Nc3n[nH]c4cc(F)cnc34)ccc12 and print it.
Result: 96.8

Ask: Retrieve CLint scaled measured for C[C@H]1OCC[C@H]1Oc1nccc2cc(Nc3n[nH]c4ncccc34)ccc12 and print it.
Result: 129

Ask: Retrieve CLint scaled measured for c1cnc2c(Nc3ccc4c(OCCN5CCOCC5)nccc4c3)n[nH]c2c1 and print it.
Result: 136

Ask: Retrieve CLint scaled measured for c1cnc2c(Nc3ccc4c(OCC5COCCO5)nccc4c3)n[nH]c2c1 (stereo not drawn) and print it.
Result: 26.5

Ask: Retrieve CLint scaled measured for CO[C@H](C)COc1nccc2cc(Nc3n[nH]c4cccnc34)ccc12 and print it.
Result: 57

---

- target.desc: 2C9 (Homo sapiens (Human))
- Sequence (P11712 whole entry): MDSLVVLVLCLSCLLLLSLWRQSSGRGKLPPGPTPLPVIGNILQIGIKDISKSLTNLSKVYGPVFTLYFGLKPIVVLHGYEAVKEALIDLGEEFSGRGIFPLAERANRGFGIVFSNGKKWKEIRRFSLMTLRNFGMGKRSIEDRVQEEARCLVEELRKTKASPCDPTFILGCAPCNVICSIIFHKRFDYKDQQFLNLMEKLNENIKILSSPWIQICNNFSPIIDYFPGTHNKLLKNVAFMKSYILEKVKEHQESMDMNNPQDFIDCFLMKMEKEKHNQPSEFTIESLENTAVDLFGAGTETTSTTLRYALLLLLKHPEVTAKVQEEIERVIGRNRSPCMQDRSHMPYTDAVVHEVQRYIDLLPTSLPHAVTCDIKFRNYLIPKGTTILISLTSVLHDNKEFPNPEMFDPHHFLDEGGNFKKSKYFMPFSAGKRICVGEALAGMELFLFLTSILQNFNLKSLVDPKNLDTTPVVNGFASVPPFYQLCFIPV
- assay.summary: CYP 2C9 inhibition
- Format: in vitro ADME
observation.type: IC50

Ask: Retrieve IC50 measured for c1cnc2c(Nc3ccc4c(O[C@H]5CCCOC5)nccc4c3)n[nH]c2c1 and print it.
Result: 6.04 µM

Ask: Retrieve IC50 measured for COCCOc1nccc2cc(Nc3n[nH]c4cccnc34)ccc12 and print it.
Result: 22 µM

Ask: Retrieve IC50 measured for c1cnc2c(Nc3ccc4c(O[C@@H]5CCOC5)nccc4c3)n[nH]c2c1 and print it.
Result: 13.3 µM

Ask: Retrieve IC50 measured for c1cnc2c(Nc3ccc4c(OCC5CCCCO5)nccc4c3)n[nH]c2c1 (stereo not drawn) and print it.
Result: 3.56 µM

Ask: Retrieve IC50 measured for c1cnc2c(Nc3ccc4c(OCC5CCCOC5)nccc4c3)n[nH]c2c1 (stereo not drawn) and print it.
Result: 3.15 µM

Ask: Retrieve IC50 measured for COCCOc1nccc2cc(Nc3n[nH]c4ncccc34)ccc12 and print it.
Result: > 30 µM

Ask: Retrieve IC50 measured for c1cnc2c(Nc3ccc4c(OC5CCOCC5)nccc4c3)n[nH]c2c1 and print it.
Result: 3.9 µM

Ask: Retrieve IC50 measured for c1cnc2[nH]nc(Nc3ccc4c(OCC5COCCO5)nccc4c3)c2c1 (stereo not drawn) and print it.
Result: 26.9 µM

Ask: Retrieve IC50 measured for c1cnc2[nH]nc(Nc3ccc4c(O[C@H]5CCOC5)nccc4c3)c2c1 and print it.
Result: > 30 µM

---

- assay.summary: Human intrinsic and hepatic clearance
- Type: in vitro ADME
observation.type: CLint scaled (mL/min/kg)
Field format: number, assumed mL/min/kg, no unit text.

Ask: Retrieve CLint scaled measured for Fc1cnc2[nH]nc(Nc3ccc4c(OC5CCOCC5)nccc4c3)c2c1 [Compound 99] and print it.
Result: 36.8

Ask: Retrieve CLint scaled measured for c1cnc2c(Nc3ccc4c(OC5CCOCC5)nccc4c3)n[nH]c2c1 [Compound 60] and print it.
Result: 16.1

Ask: Retrieve CLint scaled measured for COCCOc1nccc2cc(Nc3n[nH]c4ccccc34)ccc12 [Compound 98] and print it.
Result: 30

Ask: Retrieve CLint scaled measured for c1cnc2c(Nc3ccc4c(OCC5CCCCO5)nccc4c3)n[nH]c2c1 (stereo not drawn) [Compound 56] and print it.
Result: 72.3

Ask: Retrieve CLint scaled measured for c1cnc2c(Nc3ccc4c(O[C@@H]5CCCOC5)nccc4c3)n[nH]c2c1 [Compound 62] and print it.
Result: 58.3

Ask: Retrieve CLint scaled measured for Fc1cnc2c(Nc3ccc4c(O[C@H]5CCOC5)nccc4c3)n[nH]c2c1 [Compound 95] and print it.
Result: 40.3

Ask: Retrieve CLint scaled measured for c1cc2cc(Nc3n[nH]c4nccnc34)ccc2c(OCC2CCCCO2)n1 (stereo not drawn) [Compound 57] and print it.
Result: 53.8

Ask: Retrieve CLint scaled measured for c1cnc2[nH]nc(Nc3ccc4c(O[C@H]5CCOC5)nccc4c3)c2c1 [Compound 66] and print it.
Result: 37.9

Ask: Retrieve CLint scaled measured for Fc1cnc2c(Nc3ccc4c(OCC5COCCO5)nccc4c3)n[nH]c2c1 (stereo not drawn) [Compound 100] and print it.
Result: 46.1

---

- assay.summary: Rat intrinsic and hepatic clearance
- Assay type: in vitro ADME
observation.type: CLint scaled (mL/min/kg)
Field format: number, assumed mL/min/kg, no unit text.

Ask: Retrieve CLint scaled measured for COCCOc1nccc2cc(Nc3n[nH]c4ncccc34)ccc12 [Compound 74] and print it.
Result: 252

Ask: Retrieve CLint scaled measured for COCCOc1nccc2cc(Nc3n[nH]c4cccnc34)ccc12 [Compound 67] and print it.
Result: 113

Ask: Retrieve CLint scaled measured for c1cnc2c(Nc3ccc4c(OCC5CCCCO5)nccc4c3)n[nH]c2c1 (centres unmarked) [Compound 56] and print it.
Result: 348

Ask: Retrieve CLint scaled measured for CO[C@H](C)COc1nccc2cc(Nc3n[nH]c4nccnc34)ccc12 [Compound 84] and print it.
Result: 145

Ask: Retrieve CLint scaled measured for C[C@H]1C[C@H](Oc2nccc3cc(Nc4n[nH]c5cccnc45)ccc23)CO1 [Compound 87] and print it.
Result: 61

Ask: Retrieve CLint scaled measured for c1cc2cc(Nc3n[nH]c4nccnc34)ccc2c(OCC2CCOC2)n1 (centres unmarked) [Compound 85] and print it.
Result: 95.7

Ask: Retrieve CLint scaled measured for C[C@@H]1C[C@H](Oc2nccc3cc(Nc4n[nH]c5cccnc45)ccc23)CO1 [Compound 89] and print it.
Result: 204

Ask: Retrieve CLint scaled measured for Fc1cnc2c(Nc3ccc4c(OCC5COCCO5)nccc4c3)n[nH]c2c1 (centres unmarked) [Compound 100] and print it.
Result: 156

Ask: Retrieve CLint scaled measured for c1cnc2c(Nc3ccc4c(OCCN5CCOCC5)nccc4c3)n[nH]c2c1 [Compound 93] and print it.
Result: 718

Ask: Retrieve CLint scaled measured for CO[C@H](C)COc1nccc2cc(Nc3n[nH]c4cccnc34)ccc12 [Compound 70] and print it.
Result: 238

Ask: Retrieve CLint scaled measured for COCCOc1nccc2cc(Nc3n[nH]c4ccccc34)ccc12 [Compound 98] and print it.
Result: 216

Ask: Retrieve CLint scaled measured for c1cc2cc(Nc3n[nH]c4nccnc34)ccc2c(OCC2CCCCO2)n1 (centres unmarked) [Compound 57] and print it.
Result: 211

Ask: Retrieve CLint scaled measured for C[C@H]1C[C@H](Oc2nccc3cc(Nc4n[nH]c5ncccc45)ccc23)CO1 [Compound 88] and print it.
Result: 79.9

Ask: Retrieve CLint scaled measured for c1cnc2c(Nc3ccc4c(OCC5CCOC5)nccc4c3)n[nH]c2c1 (centres unmarked) [Compound 71] and print it.
Result: 151

Ask: Retrieve CLint scaled measured for C[C@H]1OCC[C@H]1Oc1nccc2cc(Nc3n[nH]c4cccnc34)ccc12 [Compound 91] and print it.
Result: 377

Ask: Retrieve CLint scaled measured for c1cc2cc(Nc3n[nH]c4nccnc34)ccc2c(OCC2CCOCC2)n1 [Compound 82] and print it.
Result: 154

Ask: Retrieve CLint scaled measured for COCCOc1nccc2cc(Nc3n[nH]c4cc(F)cnc34)ccc12 [Compound 97] and print it.
Result: 161

Ask: Retrieve CLint scaled measured for c1cnc2c(Nc3ccc4c(O[C@@H]5CCOC5)nccc4c3)n[nH]c2c1 [Compound 63] and print it.
Result: 181

Ask: Retrieve CLint scaled measured for c1cnc2c(Nc3ccc4c(OCC5COCCO5)nccc4c3)n[nH]c2c1 (centres unmarked) [Compound 73] and print it.
Result: 120

Ask: Retrieve CLint scaled measured for c1cnc2c(Nc3ccc4c(O[C@H]5CCOC5)nccc4c3)n[nH]c2c1 [Compound 64] and print it.
Result: 94.8

Ask: Retrieve CLint scaled measured for Fc1cnc2[nH]nc(Nc3ccc4c(OC5CCOCC5)nccc4c3)c2c1 [Compound 99] and print it.
Result: 227

Ask: Retrieve CLint scaled measured for c1cnc2[nH]nc(Nc3ccc4c(O[C@H]5CCOC5)nccc4c3)c2c1 [Compound 66] and print it.
Result: 210

Ask: Retrieve CLint scaled measured for c1cnc2[nH]nc(Nc3ccc4c(OCC5COCCO5)nccc4c3)c2c1 (centres unmarked) [Compound 80] and print it.
Result: 376

Ask: Retrieve CLint scaled measured for Fc1cnc2c(Nc3ccc4c(O[C@H]5CCOC5)nccc4c3)n[nH]c2c1 [Compound 95] and print it.
Result: 127

Ask: Retrieve CLint scaled measured for COCCOc1nccc2cc(Nc3n[nH]c4ncc(F)cc34)ccc12 [Compound 96] and print it.
Result: 327

Ask: Retrieve CLint scaled measured for c1cnc2c(Nc3ccc4c(OC5CCOCC5)nccc4c3)n[nH]c2c1 [Compound 60] and print it.
Result: 94.1
